method-description: Cytotoxicity against human HEK293 cells measured after 20 hrs by resazurin dye based fluorescence assay
Assay type: cell-based
We begin with a simple list: items and their reported CC50 at 20 h.
property-label: CC50 at 20 h (µM)

>>> endpoint_result("COC(=O)c1cccc2c(C(=O)C(=O)NCCCNCCCCNCCCNC(=O)C(=O)c3c[nH]c4c(C(=O)OC)cccc34)c[nH]c12.O=C(O)C(F)(F)F.O=C(O)C(F)(F)F")
3.78
>>> endpoint_result("O=C(NCCCNCCCCNCCCNC(=O)C(=O)c1c[nH]c2c(Cl)cccc12)C(=O)c1c[nH]c2c(Cl)cccc12.O=C(O)C(F)(F)F.O=C(O)C(F)(F)F")
31.6
>>> endpoint_result("O=C(NCCCNCCCCNCCCNC(=O)C(=O)c1c[nH]c2c(F)cccc12)C(=O)c1c[nH]c2c(F)cccc12.O=C(O)C(F)(F)F.O=C(O)C(F)(F)F")
18.7
>>> endpoint_result("O=C(NCCCNCCCCNCCCNC(=O)C(=O)c1c[nH]c2cc(C(F)(F)F)ccc12)C(=O)c1c[nH]c2cc(C(F)(F)F)ccc12.O=C(O)C(F)(F)F.O=C(O)C(F)(F)F")
3.36
>>> endpoint_result("COc1cccc2c(C(=O)C(=O)NCCCNCCCCNCCCNC(=O)C(=O)c3c[nH]c4c(OC)cccc34)c[nH]c12")
27.1
>>> endpoint_result("O=C(NCCCNCCCCNCCCNC(=O)C(=O)c1c[nH]c2cc(F)ccc12)C(=O)c1c[nH]c2cc(F)ccc12.O=C(O)C(F)(F)F.O=C(O)C(F)(F)F")
12.5
>>> endpoint_result("O=C(NCCCNCCCCNCCCNC(=O)C(=O)c1c[nH]c2ccc(Br)cc12)C(=O)c1c[nH]c2ccc(Br)cc12.O=C(O)C(F)(F)F.O=C(O)C(F)(F)F")
14.1
>>> endpoint_result("O=C(NCCCNCCCCNCCCNC(=O)C(=O)c1c[nH]c2cc(Cl)ccc12)C(=O)c1c[nH]c2cc(Cl)ccc12.O=C(O)C(F)(F)F.O=C(O)C(F)(F)F")
19.1
>>> endpoint_result("O=C(NCCCNCCCCNCCCNC(=O)C(=O)c1c[nH]c2ccc(Cl)cc12)C(=O)c1c[nH]c2ccc(Cl)cc12.O=C(O)C(F)(F)F.O=C(O)C(F)(F)F")
4.73
>>> endpoint_result("O=C(NCCCNCCCCNCCCNC(=O)C(=O)c1c[nH]c2cc(Br)c(Br)cc12)C(=O)c1c[nH]c2cc(Br)c(Br)cc12.O=C(O)C(F)(F)F.O=C(O)C(F)(F)F")
1.62

====

method-description: Hemolytic activity against Sprague-Dawley rat RBC assessed as release of hemoglobin at 50 uM incubated for 1 hr relative to control
Type: ADME, cell-based, Erythrocyte
recorded-conditions: red blood cells (erythrocytes), read-out: Activity
We begin with a simple list: items and their reported hemolysis at 1 h, 50 µM.
property-label: hemolysis at 1 h, 50 µM (%)

>>> endpoint_result("O=C(NCCCNCCCCNCCCNC(=O)C(=O)c1c[nH]c2ccccc12)C(=O)c1c[nH]c2ccccc12")
0
>>> endpoint_result("O=C(NCCCNCCCCNCCCNC(=O)C(=O)c1c[nH]c2cc(C(F)(F)F)ccc12)C(=O)c1c[nH]c2cc(C(F)(F)F)ccc12.O=C(O)C(F)(F)F.O=C(O)C(F)(F)F")
3.2
>>> endpoint_result("O=C(NCCCNCCCCNCCCNC(=O)C(=O)c1c[nH]c2cccc(F)c12)C(=O)c1c[nH]c2cccc(F)c12")
0.3
>>> endpoint_result("COC(=O)c1ccc2c(C(=O)C(=O)NCCCNCCCCNCCCNC(=O)C(=O)c3c[nH]c4cc(C(=O)OC)ccc34)c[nH]c2c1.O=C(O)C(F)(F)F.O=C(O)C(F)(F)F")
0.6
>>> endpoint_result("COC(=O)c1ccc2[nH]cc(C(=O)C(=O)NCCCNCCCCNCCCNC(=O)C(=O)c3c[nH]c4ccc(C(=O)OC)cc34)c2c1.O=C(O)C(F)(F)F.O=C(O)C(F)(F)F")
0
>>> endpoint_result("O=C(NCCCNCCCCNCCCNC(=O)C(=O)c1c[nH]c2cc(Br)c(Br)cc12)C(=O)c1c[nH]c2cc(Br)c(Br)cc12.O=C(O)C(F)(F)F.O=C(O)C(F)(F)F")
88.7
>>> endpoint_result("COc1ccc2c(C(=O)C(=O)NCCCNCCCCNCCCNC(=O)C(=O)c3c[nH]c4cc(OC)ccc34)c[nH]c2c1")
0
>>> endpoint_result("N#Cc1ccc2[nH]cc(C(=O)C(=O)NCCCNCCCCNCCCNC(=O)C(=O)c3c[nH]c4ccc(C#N)cc34)c2c1.O=C(O)C(F)(F)F.O=C(O)C(F)(F)F")
0
>>> endpoint_result("COc1cccc2c(C(=O)C(=O)NCCCNCCCCNCCCNC(=O)C(=O)c3c[nH]c4c(OC)cccc34)c[nH]c12")
0
>>> endpoint_result("O=C(NCCCNCCCCNCCCNC(=O)C(=O)c1c[nH]c2ccc(F)cc12)C(=O)c1c[nH]c2ccc(F)cc12.O=C(O)C(F)(F)F.O=C(O)C(F)(F)F")
0
>>> endpoint_result("Cc1cccc2c(C(=O)C(=O)NCCCNCCCCNCCCNC(=O)C(=O)c3c[nH]c4c(C)cccc34)c[nH]c12.O=C(O)C(F)(F)F.O=C(O)C(F)(F)F")
0.1
>>> endpoint_result("N#Cc1ccc2c(C(=O)C(=O)NCCCNCCCCNCCCNC(=O)C(=O)c3c[nH]c4cc(C#N)ccc34)c[nH]c2c1.O=C(O)C(F)(F)F.O=C(O)C(F)(F)F")
0
>>> endpoint_result("O=C(NCCCNCCCCNCCCNC(=O)C(=O)c1c[nH]c2cc(Br)ccc12)C(=O)c1c[nH]c2cc(Br)ccc12")
91
>>> endpoint_result("Cc1ccc2[nH]cc(C(=O)C(=O)NCCCNCCCCNCCCNC(=O)C(=O)c3c[nH]c4ccc(C)cc34)c2c1.O=C(O)C(F)(F)F.O=C(O)C(F)(F)F")
0.3
>>> endpoint_result("O=C(NCCCNCCCCNCCCNC(=O)C(=O)c1c[nH]c2cc(F)ccc12)C(=O)c1c[nH]c2cc(F)ccc12.O=C(O)C(F)(F)F.O=C(O)C(F)(F)F")
0.3
>>> endpoint_result("COc1ccc2[nH]cc(C(=O)C(=O)NCCCNCCCCNCCCNC(=O)C(=O)c3c[nH]c4ccc(OC)cc34)c2c1")
0

====

System: L6
method-description: Cytotoxicity against rat L6 cells measured after 72 hrs by alamar blue assay
Type: cell-based
recorded-conditions: L6, 72 h
pIC50: −log10 of the molar value.
property-label: pIC50

>>> endpoint_result("O=C(NCCCNCCCCNCCCNC(=O)C(=O)c1c[nH]c2cc(Br)ccc12)C(=O)c1c[nH]c2cc(Br)ccc12")
5.11
>>> endpoint_result("COc1cc([C@@H]2c3cc4c(cc3[C@H](O)[C@H]3COC(=O)[C@H]23)OCO4)cc(OC)c1OC")
7.74
>>> endpoint_result("O=C(NCCCNCCCCNCCCNC(=O)C(=O)c1c[nH]c2ccc(Cl)cc12)C(=O)c1c[nH]c2ccc(Cl)cc12.O=C(O)C(F)(F)F.O=C(O)C(F)(F)F")
4.70
>>> endpoint_result("O=C(NCCCNCCCCNCCCNC(=O)C(=O)c1c[nH]c2ccccc12)C(=O)c1c[nH]c2ccccc12")
4.22
>>> endpoint_result("COc1cccc2c(C(=O)C(=O)NCCCNCCCCNCCCNC(=O)C(=O)c3c[nH]c4c(OC)cccc34)c[nH]c12")
4.21
>>> endpoint_result("O=C(NCCCNCCCCNCCCNC(=O)C(=O)c1c[nH]c2cccc(F)c12)C(=O)c1c[nH]c2cccc(F)c12")
3.78
>>> endpoint_result("Cc1cccc2c(C(=O)C(=O)NCCCNCCCCNCCCNC(=O)C(=O)c3c[nH]c4c(C)cccc34)c[nH]c12.O=C(O)C(F)(F)F.O=C(O)C(F)(F)F")
4.22
>>> endpoint_result("COc1ccc2[nH]cc(C(=O)C(=O)NCCCNCCCCNCCCNC(=O)C(=O)c3c[nH]c4ccc(OC)cc34)c2c1")
4.25
>>> endpoint_result("COC(=O)c1cccc2c(C(=O)C(=O)NCCCNCCCCNCCCNC(=O)C(=O)c3c[nH]c4c(C(=O)OC)cccc34)c[nH]c12.O=C(O)C(F)(F)F.O=C(O)C(F)(F)F")
4.46
>>> endpoint_result("N#Cc1ccc2c(C(=O)C(=O)NCCCNCCCCNCCCNC(=O)C(=O)c3c[nH]c4cc(C#N)ccc34)c[nH]c2c1.O=C(O)C(F)(F)F.O=C(O)C(F)(F)F")
4.33
>>> endpoint_result("COC(=O)c1ccc2[nH]cc(C(=O)C(=O)NCCCNCCCCNCCCNC(=O)C(=O)c3c[nH]c4ccc(C(=O)OC)cc34)c2c1.O=C(O)C(F)(F)F.O=C(O)C(F)(F)F")
4.38
